# system_name: Dual specificity tyrosine-phosphorylation-regulated kinase 1A (Homo sapiens)
# assay_details: Inhibition of N-terminal His-tagged human Dyrk1A (126 to 490 residues) expressed in Escherichia coli BL21 (DE3) cells at 1 uM using Woodtide as substrate assessed as remaining enzyme activity after 10 mins in presence of [gamma-32P]-ATP by microbeta scintillation counting method
measured_quantity: Activity (%)

Example results:
Oc1ccc(-c2cnc3nccc(-c4ccc(O)cc4)c3c2)cc1 = 67
Oc1ccc2c(c1)CNc1cc(O)ccc1N2 = 104
Nc1nc2ccc(-c3ccc(O)cc3)cc2n1-c1ccc(O)cc1 = 74
CC(=O)Nc1nc2ccc(-c3ccc(O)cc3)cc2n1-c1ccc(O)cc1 = 106

[1] O=C(Nc1ccc(O)cc1)c1cncc2nnc(-c3ccc(O)cc3)n12
[2] Oc1ccc(-c2ccnc(-c3cc(-c4ccc(O)cc4)n[nH]3)c2)cc1
Query :: Endpoint returns whichever of 1 and 2 has the numerically higher Activity. Your answer should be the label of the entry you select.
Result :: 1

###

# system_name: Dual specificity tyrosine-phosphorylation-regulated kinase 1A (Homo sapiens)
# assay_details: Inhibition of N-terminal His-tagged human Dyrk1A (126 to 490 residues) expressed in Escherichia coli BL21 (DE3) cells at 10 uM using Woodtide as substrate assessed as remaining enzyme activity after 10 mins in presence of [gamma-32P]-ATP by microbeta scintillation counting method
measured_quantity: Activity (%)

Example results:
O=C(Nc1cccc(O)c1)c1cncc2nnc(-c3ccc(O)cc3)n12 = 102
Oc1ccc(-c2nnc3cncc(OCCc4cccc(O)c4)n23)cc1 = 91
Oc1ccc(-c2cnc3[nH]cc(-c4ccc(O)cc4)c3c2)cc1 = 3.3
Oc1ccc(-c2ccnc(-c3cc(-c4ccc(O)cc4)n[nH]3)c2)cc1 = 9
CC(=O)Nc1nc2ccc(-c3ccc(O)cc3)cc2n1-c1ccc(O)cc1 = 107
Oc1ccc(-c2ccnc(-c3cc(-c4ccc(O)cc4)ccn3)c2)cc1 = 83
Oc1ccc(-c2nc[nH]c2-c2ccc(O)cc2)cc1 = 79
Oc1ccc2c(c1)CNc1cc(O)ccc1N2 = 113

[a] Oc1ccc(-c2ccc(-c3cc(-c4ccc(O)cc4)n[nH]3)nc2)cc1
[b] Oc1ccc(-c2cnc3nccc(-c4ccc(O)cc4)c3c2)cc1
[c] Nc1nc2ccc(-c3ccc(O)cc3)cc2n1-c1ccc(O)cc1
Query :: Please rank these compounds by Activity in descending order. Submit the labels in the order that the ranking request calls for.
Result :: a, c, b

The measured values listed here are drawn from ChEMBL document CHEMBL4261638.
